Here the recorded inhibition is given for each entry.
# system_name: Proteasome component C5 (Homo sapiens) (UniProt P20618)
# Sequence (P20618 whole entry): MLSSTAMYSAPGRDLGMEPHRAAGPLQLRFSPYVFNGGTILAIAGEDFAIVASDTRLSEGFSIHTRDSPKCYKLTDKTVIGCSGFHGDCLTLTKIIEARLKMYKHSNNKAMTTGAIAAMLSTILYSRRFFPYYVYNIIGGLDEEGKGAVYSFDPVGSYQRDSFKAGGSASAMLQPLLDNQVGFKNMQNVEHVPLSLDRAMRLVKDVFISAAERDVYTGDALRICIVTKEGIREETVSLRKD
# protocol_notes: Inhibition of human 20S constitutive proteasome beta-1 at 50 uM using Z-LLE-betaNA as substrate incubated for 15 mins measured for 45 mins by fluorescence assay relative to control

Illustrative cases are given below, each with its answer.
[[record]]
structure = "C[C@H](NC(=O)[C@H](Cc1ccc(OCc2ccccc2)cc1)NC(=O)OC(C)(C)C)C(=O)N[C@@H](C[C@]1(O)C(=O)Nc2ccccc21)C(=O)NCc1cccc2ccccc12"
recorded_measurement = "> 85%"

[[record]]
structure = "C[C@H](NC(=O)[C@H](Cc1ccc(OCc2ccccc2)cc1)NC(=O)OC(C)(C)C)C(=O)N[C@@H](C[C@]1(O)C(=O)Nc2ccccc21)C(=O)NCc1ccc(-c2ccccc2)cc1"
recorded_measurement = "> 85%"


Now turn to the next compound.
Name the recorded inhibition for `C[C@@H](NC(=O)[C@H](Cc1ccc(OCc2ccccc2)cc1)NC(=O)OC(C)(C)C)C(=O)N[C@@H](C[C@]1(O)C(=O)Nc2ccccc21)C(=O)NCc1ccccc1` . > 85%
